test system: CAKI-1 renal; assay: NCI-60 one-dose screen, 48 h (100 = growth as untreated, 0 = no growth, -100 = all killed); settings: 10 µM unless noted
Compounds without any hit were thinned out: in the full panel of roughly 83,000, 20% have a hit. Calls of active or inactive are those of the source. The calls were made as follows: active = growth percent below 10; inactive = the rest.
growth values by entry

Please review the following examples before continuing.
>  <compound>
CC(CN1CCN(CC(C)Nc2ccnc3cc(Cl)ccc23)CC1)Nc1ccnc2cc(Cl)ccc12 (stereo unspecified)

>  <growth>
11.2% (inactive)

$$$$
>  <compound>
Cc1cc(N)cc(C)c1-c1c(Br)cc(N)cc1Br

>  <growth>
35% (inactive)

$$$$
>  <compound>
C=C1C(=O)O[C@H]2[C@H]1CC/C(COC(=O)N[C@@H](Cc1c[nH]c3ccccc13)C(=O)OC)=C\CC[C@@]1(C)O[C@@H]21

>  <growth>
29.7% (inactive)

$$$$

Enquiry: Read off the recorded growth for COC(=O)c1ccc2c(c1)nc(-c1ccc(Cl)cc1)n2-c1cc(C(C)(C)C)[nH]n1
Return: 50.4% (inactive)

---

test system: HS 578T breast; assay: NCI-60 one-dose screen, 48 h (100 = growth as untreated, 0 = no growth, -100 = all killed); details: 10 µM unless noted
The panel holds about 83,000 compounds, 20% with a hit somewhere; the sample as a whole holds those more often. Activity calls are given as the source filed them. Rule for the calls: active = growth percent below 10; inactive = the rest.
growth values by entry

>  <molecule>
O=C1/C(=C/N2N=C(c3ccc(Cl)cc3)CC2c2ccccc2O)SC(=S)N1c1cccc(C(F)(F)F)c1 (stereo not given)

>  <experimental_result>
71% (inactive)

$$$$
>  <molecule>
COc1ccc(-c2nc(SCCC(C)C)nc(Nc3ccc(C(=O)O)cc3)c2C#N)cc1

>  <experimental_result>
94.2% (inactive)

$$$$
>  <molecule>
COc1cc(/C=C\c2cc(/C=C\c3ccc(O)c(OC)c3)n(C(=O)Nc3ccc(C(F)(F)F)cc3)n2)ccc1O

>  <experimental_result>
51.9% (inactive)

$$$$
>  <molecule>
O=C(CCl)Nc1cc(O)c2c(c1)C(=O)c1cccc(O)c1C2=O

>  <experimental_result>
11.4% (inactive)

$$$$

Please find the next molecule below.
Enquiry: Read off the recorded growth for C=CCN1C(=O)/C(=c2\sc3n(c2=O)C2C(NN=3)N(CC)C(=O)N2CC)c2ccccc21 (stereo not given)
Return: 59.4% (inactive)

---

system: NCI-H460 lung; assay: NCI-60 one-dose screen, 48 h (100 = growth as untreated, 0 = no growth, -100 = all killed); conditions: 10 µM unless noted
Compounds without any hit were thinned out: in the full panel of roughly 83,000, 20% have a hit.
measured_parameter: growth (%)
Reply with just the number (in %).

Please review the following examples before continuing.
>  <molecule>
C=CC(=O)N1CN(C(=O)C=C)CN(C(=O)C=C)C1

>  <measured_parameter>
growth

>  <experimental_result>
102

$$$$
>  <molecule>
CCc1c(C)c2ccc(O)c(-c3cc(-c4ccccc4)c(C#N)c(=O)[nH]3)c2oc1=O

>  <measured_parameter>
growth

>  <experimental_result>
112

$$$$
>  <molecule>
CC(C)c1ccc(-c2cnc3nonc3n2)cc1

>  <measured_parameter>
growth

>  <experimental_result>
70.5

$$$$
>  <molecule>
O=[N+]([O-])c1ccc(N/N=C\c2ccc(O)cc2O)nc1

>  <measured_parameter>
growth

>  <experimental_result>
19.6

$$$$
>  <molecule>
C=C1C[C@@]2(C)C(CC[C@]3(C)C2CC=C2C4CC(C)(C)C[C@@H](OC(=O)/C(C)=C\C)[C@]4(C(=O)O)CC[C@]23C)C(C)(C)C1=O (stereo partly specified)

>  <measured_parameter>
growth

>  <experimental_result>
-37.2

$$$$

Enquiry: Read off the recorded growth for Nc1nc(NC2CC2)cc(-c2cccc(Cl)c2Cl)n1
Return: 27.6

---

growth values by entry
system: UO-31 renal; test: NCI-60 one-dose screen, 48 h (100 = growth as untreated, 0 = no growth, -100 = all killed); conditions: 10 µM unless noted
The panel holds about 83,000 compounds, 20% with a hit somewhere; the sample as a whole holds those more often.
Reply with just the number (in %).

Please review the following examples before continuing.
>  <compound>
O=C(O)CSc1ccc(NCc2oc(CO)cc(=O)c2O)cc1

>  <experimental_result>
80

$$$$
>  <compound>
Cc1c(C(=O)Nc2ccccc2F)sc2c(=O)[nH]cnc12

>  <experimental_result>
74.6

$$$$
>  <compound>
CC(C)(C)OC(=O)N1CCCN(CCNc2nccc(-c3c(-c4cccc(O)c4)nc4sccn34)n2)S1(=O)=O

>  <experimental_result>
74.5

$$$$
>  <compound>
C=C1C(=O)O[C@H]2[C@H]1CC/C(COC(=O)N[C@@H](Cc1c[nH]c3ccccc13)C(=O)OC)=C\CC[C@@]1(C)O[C@@H]21

>  <experimental_result>
41.3

$$$$
>  <compound>
CC(C)c1ccc(-c2cnc3nonc3n2)cc1

>  <experimental_result>
41.3

$$$$

Enquiry: Read off the recorded growth for Cc1ccc(Nc2cccc3ccccc23)cc1
Return: 45.5

Enquiry: Read off the recorded growth for Clc1ccc(-c2cnc3nonc3n2)s1
Return: 64

Enquiry: Read off the recorded growth for CC1(C)OC2OC3C(CN)OC(c4ccccc4)OC3C2O1 (stereo unspecified)
Return: 103

Enquiry: Read off the recorded growth for COc1cc(Nc2ncccc2/C=C/C(=O)c2cc(OC)c(OC)c(OC)c2)cc(OC)c1OC
Return: 65.6

Enquiry: Read off the recorded growth for Cn1cnc([N+](=O)[O-])c1S(=O)(=O)Oc1ccccc1
Return: 75.1

Enquiry: Read off the recorded growth for O=C(Nc1ccc(Br)cc1)Nc1cccc(Br)c1
Return: 34.9

---

test system: ACHN renal; assay: NCI-60 one-dose screen, 48 h; details: 10 µM unless noted
About 83,000 compounds went through this panel and 20% of them were active in at least one assay; those are over-represented in the sample as a whole. Calls of active or inactive are those of the source. How the source made its calls: active means growth percent below 10; inactive means the rest.
Please state which outcome applies, choosing from active, inactive

>  <compound>
Nc1c(C(=O)C[C@@H](N)CO)ccc2c1C(=O)CCO2

>  <group_label>
inactive

$$$$

Enquiry: Could you please tell me the result logged for CCN1C(=O)N(CC)C2C1NN=c1s/c(=C\c3ccc(Br)cc3)c(=O)n12 (configuration not stated) in this assay?
Return: inactive

Enquiry: Could you please tell me the result logged for CN(C)CC(=O)c1ccc2cc(Br)c3ccccc3c2c1 in this assay?
Return: inactive

---

growth values by entry
Test system: KM12 colon
Test: NCI-60 one-dose screen, 48 h (100 = growth as untreated, 0 = no growth, -100 = all killed)
Settings: 10 µM unless noted
Method: Growth inhibition of the KM12 human tumor cell line is measured as a screen for anti-cancer activity. Cells are grown in 96 well plates and exposed to the test compound for 48 hours. Compounds are tested at a single concentration, which is 10^-5 M for most compounds. The reported endpoint is percent growth (GI% or GIPRCNT), where numbers from 0 - 100% represent growth inhibition, and numbers from -100% - 0 represent cell death. For example, a value of 40 represents 60% growth inhibition. […]
This is part of a sample that, as a whole, favours compounds with a hit. Of some 83,000 tested, about 20% had one in any assay.
Reply with just the number (in %).

Please review the following examples before continuing.
>  <molecule>
N/C(=C\C(=O)n1nc(-c2ccccc2)cc1N)c1ccccc1

>  <growth / %>
30

$$$$
>  <molecule>
O=C(NO)c1ccc(CNc2cccc3nc(C4CC4)n(-c4ccccc4)c(=O)c23)cc1

>  <growth / %>
8.66

$$$$
>  <molecule>
COc1cc(OC)cc(-c2ccc(-c3ccc(C(=N)N)s3)s2)c1

>  <growth / %>
-73.3

$$$$

Enquiry: Please look at O=C(Nc1ccccc1)c1cc2ccccc2s1 and tell me its recorded growth on KM12 colon.
Return: 29.8

Enquiry: Please look at CCOC(=O)C(CCCCC(NC(C)=O)(C(=O)OCC)C(=O)OCC)(NC(C)=O)C(=O)OCC and tell me its recorded growth on KM12 colon.
Return: 100

Enquiry: Please look at S=C(S)Oc1cccc2cccnc12 and tell me its recorded growth on KM12 colon.
Return: 109

Enquiry: Please look at O=C1OCC2=C1C(c1ccccc1)c1cc3c(cc1N2CCO)OCO3 (configuration not stated) and tell me its recorded growth on KM12 colon.
Return: 23.3

Enquiry: Please look at CCN(CC)CCCC(C)Nc1ccnc2ccc(Oc3ccccc3)cc12 (configuration not stated) and tell me its recorded growth on KM12 colon.
Return: 86.3

Enquiry: Please look at O=C1Nc2ccccc2/C1=C\c1nc(C2CCN(S(=O)(=O)c3ccc(F)cc3)CC2)n2ccccc12 and tell me its recorded growth on KM12 colon.
Return: 65.8

Enquiry: Please look at OC(COCc1ccccc1)COCc1ccccc1 and tell me its recorded growth on KM12 colon.
Return: 105

Enquiry: Please look at Clc1ccc(-c2cnc3nonc3n2)s1 and tell me its recorded growth on KM12 colon.
Return: 77.1

Enquiry: Please look at CC1=CCC2C1CC=C(C)C(CC[C@H]1[C@@](C)(O)CCC3OC(C)(C)[C@H](OC(=O)c4ccccc4)CC[C@@]31C)C2(C)C (some centres not stated) and tell me its recorded growth on KM12 colon.
Return: 98.9

Enquiry: Please look at COc1ccc(-c2nc3c(c(-c4ccc(Cl)cc4)nn3-c3ccccc3)c(-c3ccc(O)cc3)c2C#N)cc1 and tell me its recorded growth on KM12 colon.
Return: 34.4

Enquiry: Please look at CC1=C(/C=C/C(C)=C/C=C(C(=O)O)\C(C)=C\C(=O)O)C(C)(C)CCC1 and tell me its recorded growth on KM12 colon.
Return: 110

Enquiry: Please look at O=C1c2cccc3cccc(c23)C(=O)N1CCCCCCCCCCN1C(=O)c2cccc3cccc(c23)C1=O and tell me its recorded growth on KM12 colon.
Return: 109

Enquiry: Please look at CCN(CC)C(=O)O/N=C(/C)c1ccccc1 and tell me its recorded growth on KM12 colon.
Return: 102

Enquiry: Please look at CC(C)(C)OC(=O)N1CCCN(CCNc2nccc(-c3c(-c4cccc(O)c4)nc4sccn34)n2)S1(=O)=O and tell me its recorded growth on KM12 colon.
Return: 111

Ref: PubChem BioAssay (NCI)
